Tested on: AMAPA
Test: Post-emergence herbicidal glasshouse test
Assay type: in vivo, Amaranthus tuberculatus
Conditions: 250 g/ha, evaluated after 13 days, five-point scale
Below, each of the compounds is paired with its reported percentage damage caused to the plant, AMAPA value.
OBSERVED PROPERTY: percentage damage caused to the plant, AMAPA

# SMILES REPR, DATA VALUE
data = [
    ("N#Cc1cnc(Oc2cccc3nc(C(F)(F)F)ncc23)nc1", "1 (1=0-20%)"),
    ("Fc1cnc(Oc2ccc(Br)c3nc(C(F)(F)F)ccc23)nc1", "1 (1=0-20%)"),
    ("Cc1ccc(Oc2ncc(Cl)cn2)c2cnc(C(F)(F)Cl)nc12", "2 (2=21-40%)"),
    ("Cc1nc(C(F)(F)F)nc2cccc(Oc3ncc(Cl)cn3)c12", "5 (5=81-100%)"),
    ("Cc1nc(C(F)(F)F)nc2c(C#N)ccc(Oc3ncc(Cl)cn3)c12", "1 (1=0-20%)"),
    ("COc1ncc2c(Oc3ncc(Cl)cn3)cccc2n1", "5 (5=81-100%)"),
    ("Cc1cnc(Oc2cccc3nc(C(F)(F)Cl)ncc23)nc1", "4 (4=61-80%)"),
    ("Cc1ccc(Oc2ncc(Br)cn2)c2ccc(C(F)(F)F)nc12", "2 (2=21-40%)"),
    ("FC(F)(F)c1ccc2c(Oc3ncc(Br)cn3)ccc(Br)c2n1", "1 (1=0-20%)"),
]
